- experimental system: EGFR (Homo sapiens (Human))
- Sequence (P00533 25-1210): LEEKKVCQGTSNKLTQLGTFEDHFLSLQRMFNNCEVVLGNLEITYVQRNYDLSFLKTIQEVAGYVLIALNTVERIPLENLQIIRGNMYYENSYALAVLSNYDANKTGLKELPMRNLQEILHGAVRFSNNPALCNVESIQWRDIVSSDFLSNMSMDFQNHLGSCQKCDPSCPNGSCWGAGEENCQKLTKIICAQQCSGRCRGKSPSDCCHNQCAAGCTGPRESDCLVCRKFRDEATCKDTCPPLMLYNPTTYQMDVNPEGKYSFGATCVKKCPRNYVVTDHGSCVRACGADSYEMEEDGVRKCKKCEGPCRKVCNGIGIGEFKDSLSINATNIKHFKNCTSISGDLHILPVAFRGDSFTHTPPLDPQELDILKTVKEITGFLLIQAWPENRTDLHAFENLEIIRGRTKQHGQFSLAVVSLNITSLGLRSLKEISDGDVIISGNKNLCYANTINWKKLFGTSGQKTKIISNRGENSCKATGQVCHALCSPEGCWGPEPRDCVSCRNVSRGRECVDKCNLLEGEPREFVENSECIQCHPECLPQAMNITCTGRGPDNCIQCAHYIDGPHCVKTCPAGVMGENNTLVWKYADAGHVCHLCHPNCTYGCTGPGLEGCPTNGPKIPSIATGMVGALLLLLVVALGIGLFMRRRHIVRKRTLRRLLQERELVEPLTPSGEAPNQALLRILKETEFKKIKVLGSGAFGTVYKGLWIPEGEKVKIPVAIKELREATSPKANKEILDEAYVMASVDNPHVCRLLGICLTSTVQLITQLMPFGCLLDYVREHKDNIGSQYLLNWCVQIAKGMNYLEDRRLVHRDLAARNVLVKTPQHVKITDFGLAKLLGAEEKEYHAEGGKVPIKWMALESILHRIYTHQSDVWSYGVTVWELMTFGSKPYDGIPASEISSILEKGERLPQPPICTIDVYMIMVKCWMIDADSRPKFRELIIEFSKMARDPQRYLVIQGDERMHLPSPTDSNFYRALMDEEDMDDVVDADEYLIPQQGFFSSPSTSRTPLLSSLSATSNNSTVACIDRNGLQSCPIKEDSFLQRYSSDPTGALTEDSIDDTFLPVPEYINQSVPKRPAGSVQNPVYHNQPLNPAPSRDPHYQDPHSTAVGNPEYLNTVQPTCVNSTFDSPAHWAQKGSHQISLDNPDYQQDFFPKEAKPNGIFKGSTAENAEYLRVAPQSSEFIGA
- protocol text: ErbB Enzyme Assay (HTRF KinEASE-TK), Assay 3
- Format: biochemical
- test context: EGFR enzyme assay
pIC50: −log10 of the molar value.
# binarize pIC50: threshold 6 inclusive, high side Condition met, low side Condition not met

Examples from the recorded data:
C=CC(=O)N1C[C@@H]2C[C@H](c3ccc4ncnc(Nc5ccc(Oc6ccn7ncnc7c6)c(C)c5F)c4n3)C[C@H]1C2 [Example 391]	Condition met
C=CC(=O)N1CCN(c2ccc3ncnc(Nc4cc(C)c(Oc5cnc6c(c5)ncn6C)cc4F)c3n2)CC12CC2 [Example 354]	Condition not met
C=CC(=O)N1CCN(c2ccc3ncnc(Nc4ccc(Oc5ccn6ncnc6c5)cc4C(F)(F)F)c3n2)CC1(C)C [Example 448]	Condition not met
C=CC(=O)N1C[C@@H]2CC[C@H]1CN2c1ccc2ncnc(Nc3cc(C)c(Oc4ccn5ncnc5c4)cc3F)c2n1 [Example 319]	Condition met
C=CC(=O)N1CCN(c2ccc3ncnc(Nc4ccc(Oc5ccn6ncnc6c5)c(C(F)F)c4)c3n2)CC1(C)C [Example 451]	Condition not met
C=CC(=O)N1CCCCC(c2ccc3ncnc(Nc4ccc(Oc5ccn6ncnc6c5)c(C)c4F)c3n2)C1 (stereo not shown) [Example 377]	Condition met
C=CC(=O)N1CC[C@H](c2ccc3ncnc(Nc4ccc(Oc5cc(F)c6c(c5)ncn6C)c(C)c4)c3n2)CC1(C)C (racemic) [Example 279]	Condition not met
C=CC(=O)N1C[C@H](c2ccc3ncnc(Nc4cc(C)c(Oc5ccn6ncnc6c5)cc4F)c3n2)C[C@H]1C (mixture of isomers) [Example 386]	Condition not met

Check if pIC50 >= 6 (inclusive). Item: C=CC(=O)N1[C@@H]2CC[C@H]1[C@H](c1ccc3ncnc(Nc4ccc(Oc5cnc6c(c5)ncn6C)c(C)c4)c3n1)C2 [Example 408]
Condition met

Check if pIC50 >= 6 (inclusive). Item: C=CC(=O)N1CCN(c2ccc3ncnc(Nc4ccc(Oc5ccn6ncnc6c5)c(Cl)c4F)c3n2)C[C@@H]1C(C)C [Example 293]
Condition not met
